Source: patent US20040110802A1

System: SAUR 9218
EXPERIMENTAL PROTOCOL: MIC Test Method, standard agar dilution
Assay type: cell-based
CONDITION NOTES: agar dilution, Mueller Hinton agar, incubated overnight at 35° C.; lowest concentration that inhibits visible growth; read-out: SAUR 9218 MIC
OBSERVATION TYPE: MIC (µg/mL)

As a guide, the following entries are already answered.
COMPOUND	MIC (µg/mL)
N#Cc1ccc(NC(=O)c2cc(OCc3ccccc3)ccn2)c(C(=O)O)c1	0.5
N#Cc1ccc(NC(=O)c2ncc(-c3ccccc3)s2)c(C(=O)O)c1	1
Cn1c(C(=O)Nc2ccc(C#N)cc2C(=O)O)cc2cccc(-c3ccccc3F)c21	0.25

A. C[C@@H](CBr)COc1ccccc1-c1cc(C(=O)Nc2ccc(C#N)cc2C(=O)O)no1
B. CCSc1ccc(C(=O)Nc2cccc3cc(C(=O)Nc4ccc(C#N)cc4C(=O)O)[nH]c23)cc1
Among A and B , which shows a numerically higher MIC result? Answer format: the label of the selected item.
A
(A: 0.5 µg/mL, B: 0.25 µg/mL)

P. C#CCCOCC(O)COc1cccc2cc(C(=O)Nc3ccc(C#N)cc3C(=O)O)n(C)c12 (stereo not drawn)
Q. N#Cc1ccc(NC(=O)c2ncc(-c3cccc(Cl)c3)s2)c(C(=O)O)c1
Problem: Given the entries P and Q , determine which has the lower reported MIC. Answer format: the label of the selected item.
P
(P: 0.5 µg/mL, Q: 1 µg/mL)

* * *

System: SAUR 9218
EXPERIMENTAL PROTOCOL: MIC Test Method, standard agar dilution
Type: cell-based
CONDITION NOTES: agar dilution, Mueller Hinton agar, incubated overnight at 35° C.; lowest concentration that inhibits visible growth; read-out: SAUR 9218 MIC
OBSERVATION TYPE: MIC (µg/mL)

As a guide, the following entries are already answered.
MOLECULE	UNIT ABBREVIATION	REPORTED VALUE
Cc1sc(C(=O)Nc2ccc(C#N)cc2C(=O)O)cc1S(=O)(=O)N1CC(C)CC(C)C1 (stereo not shown)	µg/mL	16
Cc1nc(S(=O)(=O)Nc2cccc3cc(C(=O)Nc4ccc(C#N)cc4C(=O)O)n(C)c23)cn1C	µg/mL	1
Cc1nc(C)c(S(=O)(=O)Nc2cccc3cc(C(=O)Nc4ccc(C#N)cc4C(=O)O)n(C)c23)s1	µg/mL	0.5
O=C(Nc1ccc(O)cc1C(=O)O)c1cc(-c2ccccc2-c2ccccc2)on1	µg/mL	0.125
N#Cc1ccc(NC(=O)c2cccc(Br)n2)c(C(=O)O)c1	µg/mL	32

I. N#Cc1ccc(NC(=O)c2cncc(-c3ccco3)c2)c(C(=O)O)c1
II. Cc1ccsc1C(=O)Nc1ccc(C#N)cc1C(=O)O
III. Cc1noc(C)c1C#Cc1cncc(C(=O)Nc2ccc(C#N)cc2C(=O)O)c1
IV. N#Cc1ccc(NC(=O)c2ccc(SCC(=O)c3ccc4c(c3)C(=O)NCO4)nn2)c(C(=O)O)c1
Reorder: MIC, max to min. Please respond with the labels ordered as the question requires.
III, I, II, IV
(III: 16 µg/mL, I: 4 µg/mL, II: 1 µg/mL, IV: 0.5 µg/mL)

* * *

Test system: SAUR 9218
EXPERIMENTAL PROTOCOL: MIC Test Method, standard agar dilution
Format: cell-based
CONDITION NOTES: agar dilution, Mueller Hinton agar, incubated overnight at 35° C.; lowest concentration that inhibits visible growth; read-out: SAUR 9218 MIC
OBSERVATION TYPE: MIC (µg/mL)

As a guide, the following entries are already answered.
COMPOUND	REPORTED VALUE
Cc1sc(C(=O)Nc2ccc(Br)cc2C(=O)O)cc1S(=O)(=O)N1CCc2ccc(Cl)cc21	1
O=C(Nc1ccc(Br)cc1C(=O)O)c1cc(CCCC2CCCCC2)on1	4
Cc1sc(C(=O)Nc2ccc(C#N)cc2C(=O)O)cc1S(=O)(=O)N(CCC#N)Cc1ccccc1	64
N#Cc1ccc(NC(=O)c2cncc(C#CC3C=NNC3)c2)c(C(=O)O)c1 (stereo not shown)	4
N#Cc1ccc(NC(=O)c2noc3ccc(-c4ccccc4C(F)(F)F)cc23)c(C(=O)O)c1	0.125

P. N#Cc1ccc(NC(=O)c2cc(-c3ccc4c(c3)OCO4)on2)c(C(=O)O)c1
Q. N#Cc1ccc(NC(=O)c2cc3cccc(NC(=O)C4CCCCC4)c3[nH]2)c(C(=O)O)c1
R. N#Cc1ccc(NC(=O)c2cc(CN=[N+]=[N-])on2)c(C(=O)O)c1
S. COCCOCCCSc1ccc(C(=O)Nc2ccc(Br)cc2C(=O)O)cn1
T. O=C(O)c1cc(Br)ccc1NC(=O)c1nsc2ccccc12
Reorder: MIC, max to min. Please respond with the labels ordered as the question requires.
R, Q, T, S, P
(R: 4 µg/mL, Q: 2 µg/mL, T: 1 µg/mL, S: 0.5 µg/mL, P: 0.125 µg/mL)

* * *

System: SAUR 9218
EXPERIMENTAL PROTOCOL: MIC Test Method, standard agar dilution
Assay type: cell-based
CONDITION NOTES: agar dilution, Mueller Hinton agar, incubated overnight at 35° C.; lowest concentration that inhibits visible growth; read-out: SAUR 9218 MIC
OBSERVATION TYPE: MIC (µg/mL)

As a guide, the following entries are already answered.
COMPOUND	UNIT ABBREVIATION	MIC
N#Cc1ccc(NC(=O)c2cc3cccc(NC(=O)C4CCCC4)c3[nH]2)c(C(=O)O)c1	µg/mL	2
N#Cc1ccc(NC(=O)c2cc(CSc3ccncc3)on2)c(C(=O)O)c1	µg/mL	1
N#Cc1ccc(NC(=O)c2cc3cccc(NC(=O)COc4ccccc4)c3[nH]2)c(C(=O)O)c1	µg/mL	0.5
CC(C)NC(=O)Nc1ccc2cc(C(=O)Nc3ccc(C#N)cc3C(=O)O)n(C)c2c1	µg/mL	0.5
O=C(Nc1ccc(Br)cc1C(=O)O)c1cc(CCCc2ccccc2)on1	µg/mL	0.25
N#Cc1ccc(NC(=O)c2noc3ccc(NCC4CC4)cc23)c(C(=O)O)c1	µg/mL	0.5

I. CC(=O)Nc1ccc(S(=O)(=O)N(c2ccc3cc(C(=O)Nc4ccc(C#N)cc4C(=O)O)n(C)c3c2)S(=O)(=O)c2ccc(NC(C)=O)cc2)cc1
II. O=C(COc1ccccc1-c1cc(C(=O)Nc2ccc(O)cc2C(=O)O)no1)c1ccccc1
Among I and II , which shows a numerically higher MIC result? Answer format: the label of the selected item.
I
(I: 1 µg/mL, II: 0.5 µg/mL)

* * *

Tested on: SAUR 9218
EXPERIMENTAL PROTOCOL: MIC Test Method, standard agar dilution
Assay type: cell-based
CONDITION NOTES: agar dilution, Mueller Hinton agar, incubated overnight at 35° C.; lowest concentration that inhibits visible growth; read-out: SAUR 9218 MIC
OBSERVATION TYPE: MIC (µg/mL)

A. CC(C)CSc1cnc(C(=O)Nc2ccc(C#N)cc2C(=O)O)cn1
B. Cc1sc(C(=O)Nc2ccc(C#N)cc2C(=O)O)cc1S(=O)(=O)N1CCN(c2ncccn2)CC1
Among A and B , which shows a numerically higher MIC result? Answer format: the label of the selected item.
B
(B: 64 µg/mL, A: 0.25 µg/mL)

* * *

Test system: SAUR 9218
EXPERIMENTAL PROTOCOL: MIC Test Method, standard agar dilution
Format: cell-based
CONDITION NOTES: agar dilution, Mueller Hinton agar, incubated overnight at 35° C.; lowest concentration that inhibits visible growth; read-out: SAUR 9218 MIC
OBSERVATION TYPE: MIC (µg/mL)

As a guide, the following entries are already answered.
COMPOUND	TEST SYSTEM	MIC (µg/mL)
N#Cc1ccc(NC(=O)c2cc3ccc(OCc4ccccc4)cc3[nH]2)c(C(=O)O)c1	SAUR 9218	0.125
Cc1sc(C(=O)Nc2ccc(C#N)cc2C(=O)O)cc1S(=O)(=O)N(CCO)Cc1ccccc1	SAUR 9218	16
COc1cccc2cc(C(=O)Nc3ccc(Br)cc3C(=O)O)oc12	SAUR 9218	32
O=C(Nc1ccc(Cl)cc1C(=O)O)c1cc(-c2ccccc2Cl)on1	SAUR 9218	0.5
N#Cc1ccc(NC(=O)c2ccc3ccccc3n2)c(C(=O)O)c1	SAUR 9218	8

P. N#Cc1ccc(NC(=O)c2cnc(-c3ccccc3C(F)(F)F)cn2)c(C(=O)O)c1
Q. N#Cc1ccc(NC(=O)c2ccc(N3CCCCC3)nc2)c(C(=O)O)c1
Problem: Given the entries P and Q , determine which has the lower reported MIC. Answer format: the label of the selected item.
Q

* * *

Tested on: SAUR 9218
EXPERIMENTAL PROTOCOL: MIC Test Method, standard agar dilution
Assay type: cell-based
CONDITION NOTES: agar dilution, Mueller Hinton agar, incubated overnight at 35° C.; lowest concentration that inhibits visible growth; read-out: SAUR 9218 MIC
OBSERVATION TYPE: MIC (µg/mL)

As a guide, the following entries are already answered.
SUBSTANCE SMILES	UNIT ABBREVIATION	MIC
N#Cc1ccc(NC(=O)c2noc3ccc(Br)cc23)c(C(=O)O)c1	µg/mL	0.125
Cn1c(C(=O)Nc2ccc(C#N)cc2C(=O)O)cc2cccc(OCc3cccnc3)c21	µg/mL	0.125
N#Cc1ccc(NC(=O)c2nsc(Cl)c2Cl)c(C(=O)O)c1	µg/mL	4
O=C(Nc1ccc(Br)cc1C(=O)O)c1cccc(Br)n1	µg/mL	64
CCCCCn1c(C(=O)Nc2ccc(C#N)cc2C(=O)O)cc2ccccc21	µg/mL	2
N#Cc1ccc(NC(=O)c2csc(SCc3ccccc3)n2)c(C(=O)O)c1	µg/mL	4

I. O=C(O)c1cc(Br)ccc1NC(=O)c1cc2ccccc2n1Cc1ccccc1
II. N#Cc1ccc(NC(=O)c2cc(-c3ccccc3OCCCOc3ccccc3)on2)c(C(=O)O)c1
Problem: Given the entries I and II , determine which has the lower reported MIC. Answer format: the label of the selected item.
II
